pIC50: −log10 of the molar value.
Parameter 'readout' = pIC50; parameter 'system' = Human KLK1 (Homo sapiens (Human)).
Sequence (P06870 25-262): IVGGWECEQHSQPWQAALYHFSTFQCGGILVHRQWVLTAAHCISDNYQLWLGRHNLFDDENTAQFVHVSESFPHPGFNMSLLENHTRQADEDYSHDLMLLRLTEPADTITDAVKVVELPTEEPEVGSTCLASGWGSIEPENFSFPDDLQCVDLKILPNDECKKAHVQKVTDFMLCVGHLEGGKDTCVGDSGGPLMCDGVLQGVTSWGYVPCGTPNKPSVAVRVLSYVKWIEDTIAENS
readout_name: pIC50

Consider the worked cases shown below.
>  <compound>
CCN(CC)c1ncc(Cn2cc(C(=O)NCc3ccc4c(N)nccc4c3)c(C3CC3)n2)cc1F [Example 95]

>  <pIC50>
5.02

$$$$
>  <compound>
Cc1cc(C(=O)NCc2ccc3c(N)nccc3c2)c(C)n1Cc1ccc(Cn2ccccc2=O)cc1 [Example 44]

>  <pIC50>
5.15

$$$$

A. Nc1nccc2cc(CNC(=O)c3cn(Cc4ccc(N5CC[C@@H](F)C5)nc4)nc3C(F)(F)F)ccc12 [Example 61]
B. Nc1nccc2cc(CNC(=O)c3cn(Cc4ccc(N5CCCC5)nc4)nc3C3CC3)ccc12 [Example 90]
C. O=C(NCc1cnc2[nH]ccc2c1)c1cnn(Cc2cccc(Oc3ccccc3)c2)c1 [Example 108]
D. Nc1nccc2cc(CNC(=O)c3cn(Cc4cnc(N5CCCC5)nc4)nc3C(F)(F)F)ccc12 [Example 64]
Put these in order: smallest pIC50 first, largest last. Please express your ranking as an ordered list of the labels.
C, A, B, D
